Exercise: for every item that follows, state its recorded LogP app.
Test: Permeability coefficient through artificial membrane in presence of stirred water layer
Details: artificial membrane

Take a look at these entries with their results.
INSERT INTO assay_data (molecule, data_value) VALUES
  ('COC(=O)c1ccccc1C(=O)OC [DIMETHYL PHTHALATE]', -3.8),
  ('Nc1ccc(Cl)cc1', -3.59),
  ('Oc1ccc(Cl)cc1Cl', -3.9),
  ('Nc1ccccc1[N+](=O)[O-]', -3.64),
  ('CN1C(C(=O)Nc2ccccn2)=C(O)c2ccccc2S1(=O)=O', -4.72),
  ('C[C@]12C[C@H](O)[C@H]3[C@@H](CCC4=CC(=O)CC[C@@]43C)[C@@H]1CC[C@@H]2C(=O)CO', -4.47),
  ('COP1(=S)OCc2ccccc2O1 (stereo not given)', -4.36),
  ('C[C@@H]1C[C@H]2[C@@H]3CCC4=CC(=O)C=C[C@]4(C)[C@@]3(F)[C@@H](O)C[C@]2(C)[C@@]1(O)C(=O)CO', -4.95);

Go through the items and report each one's LogP app.
1. O=[N+]([O-])c1ccccc1O [NITROPHENOLATE]
2. Nc1ccccc1

1: -3.36; 2: -3.51

====

Experiment: Permeability coefficient through artificial membrane in presence of unstirred water layer by PAMPA
Measurement Kind: LogP app
Numbers only.

INSERT INTO results (compound, data_value) VALUES
  ('COc1nn(CSP(=S)(OC)OC)c(=O)s1 [METHIDATHION]', -4.97),
  ('Cc1ccccc1O [ORTHOCRESOL]', -4.28),
  ('Oc1ccc(Cl)cc1Cl [2,4-DICHLOROPHENOL]', -4.93),
  ('C[C@]12C[C@H](O)[C@H]3[C@@H](CCC4=CC(=O)CC[C@@]43C)[C@@H]1CC[C@@H]2C(=O)CO [CORTICOSTERONE]', -4.77),
  ('NCCc1c[nH]c2ccccc12 [TRYPTAMINE]', -5.27);

Could you report LogP app for every entry in the following list?
1. Cc1ccc(O)c(C)c1
2. CC(=O)N[C@@H](Cc1c[nH]c2ccccc12)C(N)=O [ACETYLTRYPTOPHANAMIDE]
3. C=CCOc1ccccc1OCC(O)CNC(C)C (stereo unspecified) [OXPRENOLOL]
4. O=C(O)c1ccccc1Nc1ccccc1 [FENAMIC ACID]
5. CCc1ccc(C)nc1
6. O=[N+]([O-])NC1=NCCN1Cc1ccc(Cl)nc1 [IMIDACLOPRID]

1: -4.61; 2: -5.72; 3: -4.83; 4: -4.86; 5: -5.55; 6: -5.34

====

Assay: Partition coefficient, log P of the compound
Conditions: octanol/water
Residues, ends and D or L forms follow the SMILES beside them.
Measurement Kind: logP
Give bare numbers.

INSERT INTO assay_data (molecule, data_value) VALUES
  ('COC(=O)c1ccccc1C(=O)OC [DIMETHYL PHTHALATE]', 1.56),
  ('CN1CCN(CC(=O)N2c3ccccc3C(=O)Nc3cccnc32)CC1 [PIRENZEPINE]', 0.1),
  ('Nc1ccc(Cl)cc1', 1.88);

I'm hoping you can list logP for every molecule here, please.
1. COc1nn(CSP(=S)(OC)OC)c(=O)s1
2. COc1ccc([C@@H]2Sc3ccccc3N(CCN(C)C)C(=O)[C@@H]2OC(C)=O)cc1
3. CC(=O)N[C@@H](Cc1ccc(O)cc1)C(=O)N[C@@H](Cc1ccccc1)C(N)=O (Ac-Tyr-Phe-NH2)
4. NC(=O)[C@@H](N)Cc1c[nH]c2ccccc12
5. CCOP(=S)(OCC)Oc1cc(C)nc(C(C)C)n1 [DIMPYLATE]
6. NC(=O)[C@H](Cc1c[nH]c2ccccc12)NC(=O)[C@@H](N)Cc1ccccc1 (H-Phe-Trp-NH2)
7. CC(=O)N[C@@H](Cc1c[nH]c2ccccc12)C(N)=O [ACETYLTRYPTOPHANAMIDE]
8. CC(C)(C)NCC(O)COc1cccc2c1C[C@H](O)[C@H](O)C2 (some centres undefined)

[2.5, 2.8, 0.54, 0.3, 3.3, 1.38, 0.42, 0.71]

Give logP for all molecules that follow.
1. C=CCc1ccccc1OCC(O)CNC(C)C (centres undefined)
2. O=C1N[C@@H](Cc2c[nH]c3ccccc23)C(=O)N[C@H]1Cc1c[nH]c2ccccc12
3. Cc1cc(C)cc(C(=O)N(NC(=O)c2ccc3c(c2C)CCCO3)C(C)(C)C)c1 [CHROMAFENOZIDE]
4. CCn1cc(C(=O)O)c(=O)c2cc(F)c(N3CCNCC3)cc21
5. NCC(=O)N[C@@H](Cc1c[nH]c2ccccc12)C(N)=O (H-Gly-Trp-NH2)

2.65
2.04
2.7
-1.03
-0.48

Parameters: items (list). Returns: logP for each item.
1. CC(=O)N[C@H](Cc1c[nH]c2ccccc12)C(=O)N[C@H](C(N)=O)C(C)C
2. CC(C)NCC(O)COc1cccc2[nH]ccc12 (centres undefined)
3. C[C@@H]1C[C@H]2[C@@H]3CCC4=CC(=O)C=C[C@]4(C)[C@@]3(F)[C@@H](O)C[C@]2(C)[C@@]1(O)C(=O)CO

1: 0.65; 2: 1.75; 3: 2.01
